settings: bifidobacterium adolescentis, 12 h, 2 µM
Description: The drug is tested on Bifidobacterium adolescentis strain: ATCC 15703 for biotransformation. The drug concentrations were measured before and after a 12-h incubation by liquid-chromatography-coupled mass spectrometry (LC–MS)
READOUT: Bacterial Biotransformation

Worked cases, Bacterial Biotransformation given:
MOLECULE	Bacterial Biotransformation
O=P(O)(O)O.c1ccc(CN(CC2=NCCN2)c2ccccc2)cc1 [ANTAZOLINE PHOSPHATE]	Compound NOT metabolized
CN1[C@@H]2CC[C@H]1C[C@@H](OC(=O)C(CO)c1ccccc1)C2 (stereo partly drawn)	Compound NOT metabolized
C#C[C@]1(O)CC[C@H]2[C@@H]3CCC4=Cc5oncc5C[C@]4(C)[C@H]3CC[C@@]21C	Compound metabolized
CN1CCC(=C2c3ccccc3CCc3cccnc32)CC1.O=C(O)/C=C\C(=O)O.O=C(O)/C=C\C(=O)O [AZATADINE MALEATE]	Compound NOT metabolized
CC(C)(C)NC[C@H](O)COc1ccccc1C1CCCC1.CC(C)(C)NC[C@H](O)COc1ccccc1C1CCCC1.O=S(=O)(O)O [PENBUTOLOL SULFATE]	Compound NOT metabolized

Briefly, Bacterial Biotransformation measured for COc1cc2nc(N3CCN(C(=O)C4CCCO4)CC3)nc(N)c2cc1OC (stereo not drawn) : Compound NOT metabolized

Briefly, Bacterial Biotransformation measured for COC1=CC(=O)C[C@@H](C)[C@]12Oc1c(Cl)c(OC)cc(OC)c1C2=O : Compound NOT metabolized

Briefly, Bacterial Biotransformation measured for OC(CCN1CCCCC1)(c1ccccc1)C1CCCCC1 (stereo not drawn) : Compound NOT metabolized

Briefly, Bacterial Biotransformation measured for CC(CN1c2ccccc2Sc2ccccc21)N(C)C (stereo not drawn) : Compound NOT metabolized

Briefly, Bacterial Biotransformation measured for COc1ccc2[nH]c([S+]([O-])Cc3ncc(C)c(OC)c3C)nc2n1 (stereo not drawn) : Compound metabolized
